SYSTEM: human TfR ECD (human)
Sequence (chain, as listed by the source): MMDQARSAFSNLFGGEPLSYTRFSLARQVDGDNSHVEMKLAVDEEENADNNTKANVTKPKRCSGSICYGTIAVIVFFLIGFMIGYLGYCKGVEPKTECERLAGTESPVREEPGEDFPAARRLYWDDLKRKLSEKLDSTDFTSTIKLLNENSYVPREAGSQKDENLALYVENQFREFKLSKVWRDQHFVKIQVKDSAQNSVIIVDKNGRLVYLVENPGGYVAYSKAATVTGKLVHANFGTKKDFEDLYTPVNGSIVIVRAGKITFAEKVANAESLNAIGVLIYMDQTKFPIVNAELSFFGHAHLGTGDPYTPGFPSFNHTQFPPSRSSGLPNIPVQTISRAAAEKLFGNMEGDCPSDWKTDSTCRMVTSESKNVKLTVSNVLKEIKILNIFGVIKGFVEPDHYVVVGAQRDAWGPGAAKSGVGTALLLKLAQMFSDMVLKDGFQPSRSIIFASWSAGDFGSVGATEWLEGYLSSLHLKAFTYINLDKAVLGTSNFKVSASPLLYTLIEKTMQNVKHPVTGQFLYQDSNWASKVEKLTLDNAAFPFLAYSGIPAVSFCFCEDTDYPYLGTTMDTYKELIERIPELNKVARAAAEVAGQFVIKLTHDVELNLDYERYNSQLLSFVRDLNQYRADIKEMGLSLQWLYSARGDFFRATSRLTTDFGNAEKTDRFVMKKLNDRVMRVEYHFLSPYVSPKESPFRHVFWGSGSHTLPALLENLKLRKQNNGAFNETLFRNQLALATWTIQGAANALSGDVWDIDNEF
TEST: SPR
PARAMETER: log10 Kd (log10 of the value in nM)
Please be aware that the numbers have been log10-transformed from Kd in nM.

Illustrative cases are given below, each with its answer.
BINDER	log10 Kd
Mu15G11 Fab (antibody, V domains shown) VH: QVQLQQPGAELVKPGASVKLSCKASGYTFTSYWMHWVKQRPGQGLEWIGEINPTNGRTNYIEKFKSKATLTVDKSSSTAYMQLSSLTSEDSAVYYCARGTRAYHYWGQGTSVTVSS VL: DIQMTQSPASLSVSVGETVTITCRASDNLYSNLAWYQQKQGKSPQLLVYDATNLADGVPSRFSGSGSGTQYSLKINSLQSEDFGTYYCQHFWGTPLTFGAGTKLELK	0.53
Hu7G7.v1 Fab (antibody, V domains shown) VH: EVQLVQSGAEVKKPGASVKVSCKASGYTFTSYWMHWVRQAPGQGLEWIGNIYPGSGSTKYDERFKSRVTITVDTSTSTAYLELSSLRSEDTAVYYCTRGGYDSRAWFAYWGQGTLVTVSS VL: DIVMTQSPDSLAVSLGERATINCRARQSVSTSSYSFMHWYQQPAGQPPKLLIKYASIQESGVPDRFSGSGSGTDFTLTISSLQAEDVAVYYCQHTWEIPFTFGQGTKVEIK	1.66
Mu16F6 Fab (antibody, V domains shown) VH: DVQLQESGPGLVKPSQSLSLTCTVTGNSITSEYAWNWIRQFPGNKLEWMGYISYSGTTSYNPSLKSRISITRDTSKNQLFLQLNSVTTEDTATYFCARYGYGNPATRYFDVWGAGTTVTVSS VL: DVQITQSPSYLTASPGETITINCRASKSISKYLAWYQEKPGKTNKLLIYSGSTLQSGIPSRFSGSGSGTDFTLTISNLEPEDFAMYYCQQHNEYPWTFGGGTKLEIK	0.50
Mu7A4 Fab (antibody, V domains shown) VH: QVQLQQSGPELVRPGVSVKISCKGSGYTFTDYAMHWVKQSHAKSLEWIGGISTYFGRTNYNQKFKGRATMTVDKSSSTAYMELARLTSEDSALYYCARGLSGNYVMDYWGQGTSVTVSS VL: DIVLTQSPASLAVSLGQRATISCRASESVDSYGNSFMHWYQQKPGQPPKLLIYRASNLESGIPARFSGSGSRTDFTLTINPVEADDVATYYCQQSNEGPPTFGGGTKLEIK	-0.72
Hu7A4.v15 Fab (antibody, V domains shown) VH: EVQLVQSGAEVKKPGASVKVSCKGSGYTFTDYAMHWVRQAPGQGLEWMGGISTYFGRTNYNQKFKGRVTMTVDTSISTAYMELSRLRSDDTAVYYCARGLSGNYVMDYWGQGTTVTVSS VL: DIVMTQSPDSLAVSLGERATINCRASESVDSYGNSFMHWYQQKPGQPPKLLIYRASNLESGVPDRFSGSGSRTDFTLTISSLQAEDVAVYYCQQSNEAPPTFGQGTKLEIK	-0.46

Now for the binder whose log10 Kd we want.
[Q] For Hu16F6.v4 Fab (antibody, V domains shown) VH: EVQLVESGPGLVKPSETLSLTCTVSGNSITSEYAWNWIRQPPGKGLEWIGYISYSGTTSYNPSLKSRVTISRDTSKNQLSLKLSSVTAADTAVYYCARYGYGNPATRYFDVWGQGTLVTVSS VL: DIQMTQSPSSLSASVGDRVTITCRASKSISKYLAWYQQKPGKTNKLLLYSGSTLQSGVPSRFSGSGSGTDYTLTISSLQPEDFATYYCQQHNEYPWTFGQGTKVEIK , write its log10 Kd.
[A] 0.11
